system: TAB109; assay: qHTS profiling for inhibitors of Plasmodium falciparum proliferation (AID 504749); also: nearly all actives have a fitted effect of over 60% in size; details: P. falciparum in erythrocytes, SYBR Green DNA, 72 h; series mostly up to 28.7 µM
Records with an inconclusive call do not appear. The source made the active and inactive calls. Calls follow the shape of the dose curve; as a rule, active = well fitted inhibition curve with a large enough effect; inconclusive = small, poorly fitted or top-dose-only effect; inactive = flat fitted curve, though single readings scatter.
Possible outcomes: Y = active, N = inactive

compound	category_label
O=C(O)c1cc(O)c2c(c1)[C@H]([C@H]1c3cc(C(=O)O)cc(O)c3C(=O)c3c(O[C@@H]4OC(CO)C(O)C(O)C4O)cccc31)c1cccc(O[C@@H]3OC(CO)C(O)C(O)C3O)c1C2=O (stereo partly specified)	N
CC(=O)OC1CC2CCC1(C)C2(C)C (stereo unspecified)	N
CC1(C)S[C@@H]2[C@H](NC(=O)COc3ccccc3)C(=O)N2[C@H]1C(=O)O	N
CC(C)CN(C[C@@H](O)[C@H](Cc1ccccc1)NC(=O)O[C@H]1CCOC1)S(=O)(=O)c1ccc(N)cc1	N
CO/N=C(/C(=O)N[C@@H]1C(=O)N2C(C(=O)O)=CCS[C@H]12)c1csc(N)n1	N
CCN1/C(=C/C=C/C=C/c2sc3ccccc3[n+]2CC)Sc2ccccc21	Y
C=C[C@]1(C)C[C@@H](OC(=O)CSCCN(CC)CC)[C@]2(C)C(C)CC[C@]3(CCC(=O)[C@H]32)[C@@H](C)[C@@H]1O (stereo partly specified)	Y
C1OCOCO1	N
S=C1NC=NC2N=CNC12 (stereo unspecified)	N
CC1CCC(C(C)C)C(OC(=O)c2ccccc2O)C1 (stereo unspecified)	N
NC1=NC(S)C2N=CN=C2N1 (stereo unspecified)	N
